Cited source for all entries: patent US20240174744A1

Biological target: T1, human iRhom2 (inactive rhomboid protein 2, isoform 1), endogenously expressed on human cells (human, UniProt Q6PJF5 1-856); note: test concentration or dose not given here
T1 sequence: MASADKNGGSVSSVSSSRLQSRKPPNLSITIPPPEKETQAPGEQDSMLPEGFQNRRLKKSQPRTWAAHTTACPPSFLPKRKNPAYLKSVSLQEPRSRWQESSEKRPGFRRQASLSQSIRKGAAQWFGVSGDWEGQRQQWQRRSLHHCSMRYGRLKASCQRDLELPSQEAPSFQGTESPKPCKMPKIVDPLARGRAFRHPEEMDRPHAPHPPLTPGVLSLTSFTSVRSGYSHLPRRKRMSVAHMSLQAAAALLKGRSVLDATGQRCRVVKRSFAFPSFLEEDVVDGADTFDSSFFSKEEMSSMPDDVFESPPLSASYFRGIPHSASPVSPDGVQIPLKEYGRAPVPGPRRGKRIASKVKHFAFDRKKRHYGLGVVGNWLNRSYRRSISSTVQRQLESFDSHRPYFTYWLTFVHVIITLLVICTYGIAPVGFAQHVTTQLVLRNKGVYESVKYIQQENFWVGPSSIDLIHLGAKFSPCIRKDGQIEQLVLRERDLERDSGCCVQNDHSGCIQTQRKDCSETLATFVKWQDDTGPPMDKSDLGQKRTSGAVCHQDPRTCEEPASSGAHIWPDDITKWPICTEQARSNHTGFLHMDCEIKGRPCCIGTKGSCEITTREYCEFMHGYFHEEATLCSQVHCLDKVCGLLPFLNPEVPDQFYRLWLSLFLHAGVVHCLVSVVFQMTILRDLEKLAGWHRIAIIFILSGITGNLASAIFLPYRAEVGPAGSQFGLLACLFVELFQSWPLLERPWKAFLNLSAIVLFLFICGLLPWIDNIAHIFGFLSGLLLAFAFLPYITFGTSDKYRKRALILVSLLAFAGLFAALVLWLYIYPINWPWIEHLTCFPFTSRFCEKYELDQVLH
Assay: cell-based or functional assay
Here the recorded inhibition of LPS-induced release of TNFα from THP-1 cells, recombinant antibody is given for each entry.
Only the number, expressed in % inhibition, is required.

antibody 44 (antibody, V domains shown, Mouse IgG, kappa light chain; also called clone #44; m44) VH: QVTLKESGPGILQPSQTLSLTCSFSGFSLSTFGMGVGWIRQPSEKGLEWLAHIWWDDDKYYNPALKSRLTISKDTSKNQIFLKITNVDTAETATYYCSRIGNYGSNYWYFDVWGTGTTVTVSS VL: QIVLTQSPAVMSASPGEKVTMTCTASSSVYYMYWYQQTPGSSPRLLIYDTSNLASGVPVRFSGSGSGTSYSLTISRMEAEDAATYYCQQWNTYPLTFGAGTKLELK    73.2

# evaluate next
// inhibition of LPS-induced release of TNFα from THP-1 cells, recombinant antibody value for antibody 22 (antibody, V domains shown, Mouse IgG, kappa light chain; also called clone #22; m22) VH: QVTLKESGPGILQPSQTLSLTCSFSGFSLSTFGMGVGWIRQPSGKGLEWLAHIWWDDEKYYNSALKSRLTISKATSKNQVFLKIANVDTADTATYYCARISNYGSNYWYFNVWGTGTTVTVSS VL: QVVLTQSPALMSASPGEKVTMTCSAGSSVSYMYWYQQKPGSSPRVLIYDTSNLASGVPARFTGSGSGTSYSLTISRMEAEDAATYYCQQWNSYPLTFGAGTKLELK : 78.4
